- Test system: MALME-3M melanoma
- assay-name: NCI tumour cell line growth inhibition, 48 h; in the data active = GI50 below about 0.43 µM; inactive = the rest
Your answer must be one of the following: TRUE (active), FALSE (inactive)

The examples below pair each entry with its known result.
[
  {
    "compound": "COc1cc[nH]c1/C=C1\\C(=O)Nc2ccccc21",
    "label-value": "FALSE"
  },
  {
    "compound": "COc1ccc(C(=O)c2cc(C)c(OC)c(C)c2)c(OC)c1N(C(=O)C(Cl)Cl)C(=O)C(Cl)Cl",
    "label-value": "TRUE"
  },
  {
    "compound": "CCCCN=C(N)c1ccc(OCCSCCOc2ccc(C(N)=NCCCC)cc2)cc1",
    "label-value": "FALSE"
  },
  {
    "compound": "CC(=O)OC[C@]12CC[C@H]3[C@@H](C[C@H]4O[C@]45[C@@H](O)C=CC(=O)[C@]35C)[C@@H]1CC[C@@H]2[C@H](C)[C@H]1CC(C)=C(C)C(=O)O1",
    "label-value": "FALSE"
  },
  {
    "compound": "COc1cc(OC)c(/C=C/C(=O)c2c(OC)cccc2OC)c(OC)c1",
    "label-value": "FALSE"
  },
  {
    "compound": "Cc1cc(C)c(C(=O)CC(=O)c2cccnc2)c(C)c1",
    "label-value": "FALSE"
  }
]

Exercise: Record lookup: outcome of this test for O=C(c1cccc(O)c1O)c1cn(Cc2ccc(F)cc2)c2cccc(O)c12 ?
Key: FALSE

Exercise: Record lookup: outcome of this test for CCN(CC)CCCC(C)Nc1c(C)cnc2cc(Cl)c(C)cc12 (centres undefined) ?
Key: FALSE

Exercise: Record lookup: outcome of this test for CCC1(O)C(=O)OCc2c1cc1n(c2=O)Cc2cc3ccc(C=O)cc3nc2-1 (centres undefined) ?
Key: FALSE

---

- Tested on: UACC-257 melanoma
- assay-name: NCI tumour cell line growth inhibition, 48 h; in the data active = GI50 below about 0.43 µM; inactive = the rest
Your answer must be one of the following: 1.0 (active), 0.0 (inactive)

The examples below pair each entry with its known result.
[
  {
    "compound": "CCCCN=C(N)c1ccc(OCCSCCOc2ccc(C(N)=NCCCC)cc2)cc1",
    "label-value": 0.0
  },
  {
    "compound": "CC/C=C\\C[C@@H]1C/C=C2/C(=O)C=C[C@H]2C/C=C\\CCCC(=O)O1",
    "label-value": 0.0
  },
  {
    "compound": "CN(C)c1ccc(N)cc1",
    "label-value": 0.0
  },
  {
    "compound": "Cc1cc(C)c(C(=O)CC(=O)c2cccnc2)c(C)c1",
    "label-value": 0.0
  },
  {
    "compound": "CCS(=O)(=O)c1ccc(OC)c(Nc2ncc(-c3cccc(OC)c3)o2)c1",
    "label-value": 0.0
  }
]

Exercise: Record lookup: outcome of this test for CC(=O)OC1CC(O)C23COC(O)C1(C)C2CC(O)C1(C)C3C(=O)C(O)C2(C)C(c3ccoc3)CC3OC321 (stereo not drawn) ?
Key: 1.0

Exercise: Record lookup: outcome of this test for COc1ccc2c(c1)C(=O)c1c-2n(CCCn2ccnc2)c(=O)c2ccccc12 ?
Key: 0.0

Exercise: Record lookup: outcome of this test for O=C(Nc1ccc(Cl)cc1)c1cc(-c2ccc(F)cc2)c2sc(=O)[nH]c2n1 ?
Key: 0.0

Exercise: Record lookup: outcome of this test for CCN(CC)CCN1CC(O)=C(c2nc(-c3ccc(Cl)cc3)cs2)C1=N ?
Key: 0.0

Exercise: Record lookup: outcome of this test for NC(=S)N/N=C/c1ccc(OC(=O)COc2ccc(Cl)cc2)cn1 ?
Key: 0.0

---

- Test system: SF-539 CNS
- assay-name: NCI tumour cell line growth inhibition, 48 h
Quick reference: TGI of the listed items.

Illustrative cases are given below, each with its answer.
[
  {
    "compound": "O=C1c2ccccc2-c2c1c1ccccc1c(=O)n2Cc1ccccc1",
    "TGI": "> 100 µM"
  },
  {
    "compound": "CN(C)P(=O)(/C(N)=N/Nc1ccc([N+](=O)[O-])cc1)N(C)C",
    "TGI": "> 100 µM"
  }
]

# TGI of CCC(C)C(=O)OC1C(=O)OC2CC3C(C)=CC(=O)C(O)C3(C)C3C4(O)OCC23C1C(C)C4O (centres undefined) = 0.0315 µM

# TGI of CCS(=O)(=O)c1ccc(OC)c(Nc2ncc(-c3cccc(C(C)=O)c3)o2)c1 = > 25 µM

# TGI of Cc1ccc(-c2c(C#N)c(-c3ccccc3)n(NS(=O)(=O)c3ccc(C)cc3)c(=O)c2C#N)cc1 = > 100 µM

# TGI of COC(=O)C1=CC2C(=O)c3ccccc3C1(c1ccccc1)N2C1CCCCC1 (centres undefined) = 41.5 µM

# TGI of CC(=O)OCC1OC(NC(=S)Nn2c(=O)[nH]c3ccccc3c2=O)C(OC(C)=O)C(OC(C)=O)C1OC(C)=O (centres undefined) = > 100 µM

# TGI of Nc1ccc(/C=C/c2ccnc3ccccc23)cc1 = 47.9 µM

# TGI of CCOC(=O)NC(=O)c1cn(CCOCCOC(=O)NCCCCCCNC(=O)OCCOCCn2cc(C(=O)NC(=O)OCC)c(=O)[nH]c2=O)c(=O)[nH]c1=O = > 100 µM

---

- Test system: OVCAR-8 ovarian
- assay-name: NCI tumour cell line growth inhibition, 48 h; in the data active = GI50 below about 0.43 µM; inactive = the rest
Your answer must be one of the following: active, inactive

[
  {
    "molecule": "Cc1ccc(C(=NN=C(N)N)c2ccc(C)cc2)cc1",
    "target-or-system": "OVCAR-8 ovarian",
    "label-value": "inactive"
  },
  {
    "molecule": "CCOC(=O)c1cc(/C(=N\\O)c2cc(OC)c(OC)c(OC)c2)n2cc(C)cc(C)c12",
    "target-or-system": "OVCAR-8 ovarian",
    "label-value": "inactive"
  }
]

Exercise: Record lookup: outcome of this test for CCC[CH2][Sn]1([CH2]CCC)[O]C(=O)C(C(C)C)N=Cc2ccccc2[O]1 (stereo not given) ?
Key: inactive

Exercise: Record lookup: outcome of this test for COc1ccc(C(=O)COc2cccc(/C=C3\COc4ccc5ccccc5c4C3=O)c2)cc1 ?
Key: inactive

Exercise: Record lookup: outcome of this test for O=C(CCl)Nc1ccc(Cl)cc1 ?
Key: inactive

Exercise: Record lookup: outcome of this test for CCC#CC[C@H]1C/C=C2/C(=O)C=C[C@@H]2C/C=C\CCCC(=O)O1 ?
Key: inactive

Exercise: Record lookup: outcome of this test for CN(C)CCCn1c2c(c3ccccc3c1=O)C(=O)c1ccccc1-2 ?
Key: active

Exercise: Record lookup: outcome of this test for COC(=O)Nc1nc2ccc(Oc3ccc(NC(=O)Nc4ccccc4)cc3)cc2[nH]1 ?
Key: inactive

Exercise: Record lookup: outcome of this test for CCCCN=C(N)c1ccc(OCCSCCOc2ccc(C(N)=NCCCC)cc2)cc1 ?
Key: inactive

Exercise: Record lookup: outcome of this test for CCOC(=O)CC[C@H](N)C(=O)N[C@@H](Cc1ccc(N(CCCl)CCCl)cc1)C(=O)OCC ?
Key: inactive

Exercise: Record lookup: outcome of this test for COc1ccc(OC)c(/C=C/C(=O)N/N=C/c2ccc(Cl)cc2)c1 ?
Key: active

Exercise: Record lookup: outcome of this test for COc1cc(C2=NN(C(C)=O)C(c3ccc(OC(C)=O)cc3OC(C)=O)O2)c(OC(C)=O)c2ccccc12 (stereo not given) ?
Key: active

Exercise: Record lookup: outcome of this test for CCN(CC)CCN1CC(O)=C(c2nc(-c3ccc(Cl)cc3)cs2)C1=N ?
Key: inactive

Exercise: Record lookup: outcome of this test for CC1CN1CC(O)C(O)CN1CC1C (stereo not given) ?
Key: inactive

Exercise: Record lookup: outcome of this test for CC(=O)OC1CC(O)C23COC(O)C1(C)C2CC(O)C1(C)C3C(=O)C(O)C2(C)C(c3ccoc3)CC3OC321 (stereo not given) ?
Key: active

---

- System: SK-MEL-5 melanoma
- assay-name: NCI tumour cell line growth inhibition, 48 h
Quick reference: TGI of the listed items.
Express your answer in µM, writing the number without its unit.

[
  {
    "item-smiles": "CCC#CC[C@H]1C/C=C2/C(=O)C=C[C@@H]2C/C=C\\CCCC(=O)O1",
    "data-value": 1.71
  }
]

Known value: SK-MEL-5 melanoma TGI of the compound CC(C)c1ccc(C(=O)Nc2sc3c(c2C(N)=O)CCC(=O)C3)cc1 equals 2.56

Known value: SK-MEL-5 melanoma TGI of the compound CCN(CC)CCN1CC(O)=C(c2nc(-c3ccc(Cl)cc3)cs2)C1=N equals 3.02

Known value: SK-MEL-5 melanoma TGI of the compound C/C(Cl)=N/OC(=O)Nc1ccc(F)c([N+](=O)[O-])c1 equals 29.2

All figures here come from PubChem BioAssay (NCI).
